- tested system: T1, VEGF-D (recombinant human; source not given) (human, UniProt O43915 89-205, limits assumed)
- T1 construct: also used here as target of IC50 values averaged over Source 1 and Source 2; also called vascular endothelial growth factor-D
- T1 sequence: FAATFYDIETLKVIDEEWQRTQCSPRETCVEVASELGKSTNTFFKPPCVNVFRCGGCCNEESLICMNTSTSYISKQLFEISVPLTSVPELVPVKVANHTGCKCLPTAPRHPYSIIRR
- measurement protocol: SPR (BIAcore), VEGF-D amine-coupled on CM5, purified scFv as analyte
- Experimental: scFv variants were fully characterized using a BIAcore™ biosensor. All isolated scFv samples were purified as monomer peaks by anti-FLAG affinity chromatography followed by gel filtration chromatography. […] Clones F61, A63, AR7, AW61, CJ37, DI126 and DA18 were produced in large-scale expression cultures and purified by anti-FLAG affinity chromatography and gel filtration. The binding kinetics against VEGF-D were then measured using a BIAcore™ biosensor as described previously.
reported endpoint: kon

QUERY: So what does the record say about kon for scFv clone CJ37 (scFv) scFv: QVQLVQSGAEVKQPGASVKVSCKASGYTFTGYNMYWVRQAPGQGLEWMGYIDPYNGDTTYNQKFKGRVTMTTDTSTSTAYMKLRSLRSDDTAVYYCARTSYYGGMDYWGRGTLVTVASGGGASGGGGSGGGGSDIVMTQTPLSSPVTLGQPASISCRSSQSLVHSNGNTYLHWLQQRPGQPPRLLIYKVSNRFSGVPDRFSGSGAGTDFTLKISRVEAEDVGVYYCSQSTHVPRTFGRGTKLEIKR ?
RESULT: 2.81e+06 M⁻¹ s⁻¹

QUERY: Also need scFv clone DI26 (scFv, also called DI126) scFv: QVQLVQSGAKVKQPGASVKASCKASGYTFTGYNMYWVRQAPGQGLEWMGYIDPYSGDTTYNQKFKGRVTMTTDTSTSTAYMELRSLRSDDTAVYYCARTSYYGGMDYWGRGTLVTVASGGGASGGGGSGGGGSDIVMTQTPLSSPVTLGQPASISCRSSQSLVHSNGNTYLHWLQQRPGQPPRLLIYKVSNRFSGVPDRFSGSGAGTDFTLKISRVEAEDVGVYYCSQSTHVPRTFGQGTKLEIKR , thanks.
RESULT: 2.98e+06 M⁻¹ s⁻¹

QUERY: Also need humanized scFv 1A (scFv, also called 1A scFv; clone 1A) scFv: QVQLVQSGAEVKQPGASVKVSCKASGYTFTGYNMYWVRQAPGQGLEWMGYIDPYNGDTTYNQKFKGRVTMTTDTSTSTAYMELRSLRSDDTAVYYCARTSYYGGMDYWGRGTLVTVASGGGASGGGGSGGGGSDIVMTQTPLSSPVTLGQPASISCRSSQSLVHSNGNTYLHWLQQRPGQPPRLLIYKVSNRFSGVPDRFSGSGAGTDFTLKISRVEAEDVGVYYCSQSTHVPRTFGQGTKLEIKR , thanks.
RESULT: 845000 M⁻¹ s⁻¹

QUERY: Also need scFv clone F61 (scFv) scFv: QVQLVQSGAEVKQPGASVKVSCKASGYTFTGYNMYWVRQAPGQGLEWMGYIDPYNGDTTYNQKFKGRVTMTTDTSTSTAYMKLRSLRSDDTAVYYCARTSYYGGMDYWGRGTLVTVASGGGASGGGGSGGGGSDIVMTQTPLSSPVTLGQPASISCRSSQSLVHSNGNTYLHWLQQRPGQPPRLLIYKVSNRFSGVPDRFSGSGAGTDFTLKISRVEAEDVGVYYCSQSTHVPRTFGQGTKLEIKR , thanks.
RESULT: 2.72e+06 M⁻¹ s⁻¹
